Values were extracted from patent US20240067632A1.

molecular target: WEE1 (Homo sapiens, UniProt P30291+Q96SW2); construct: C-terminal ePL-tagged (DiscoverX, Fremont, CA) full-length WEE1 expression construct; expressed in transfected cells; host or cells: LentiX-HEK293T (Invitrogen), lentiviral transduction; co-expressing GSPT1-GN (G576N, lacking the first 158 amino acids); test: WEE1-ePL degradation assay (LentiX-WEE1-ePL-GSPT1-ND cells, InCELL Hunter luminescence, 4 h); type: cell-based; settings: 293T-LentiX WEE1-ePL cells, read-out: 293T-LentiX WEE1-ePL Degradation 4 hr (EC50)
Sequence (P30291 whole entry): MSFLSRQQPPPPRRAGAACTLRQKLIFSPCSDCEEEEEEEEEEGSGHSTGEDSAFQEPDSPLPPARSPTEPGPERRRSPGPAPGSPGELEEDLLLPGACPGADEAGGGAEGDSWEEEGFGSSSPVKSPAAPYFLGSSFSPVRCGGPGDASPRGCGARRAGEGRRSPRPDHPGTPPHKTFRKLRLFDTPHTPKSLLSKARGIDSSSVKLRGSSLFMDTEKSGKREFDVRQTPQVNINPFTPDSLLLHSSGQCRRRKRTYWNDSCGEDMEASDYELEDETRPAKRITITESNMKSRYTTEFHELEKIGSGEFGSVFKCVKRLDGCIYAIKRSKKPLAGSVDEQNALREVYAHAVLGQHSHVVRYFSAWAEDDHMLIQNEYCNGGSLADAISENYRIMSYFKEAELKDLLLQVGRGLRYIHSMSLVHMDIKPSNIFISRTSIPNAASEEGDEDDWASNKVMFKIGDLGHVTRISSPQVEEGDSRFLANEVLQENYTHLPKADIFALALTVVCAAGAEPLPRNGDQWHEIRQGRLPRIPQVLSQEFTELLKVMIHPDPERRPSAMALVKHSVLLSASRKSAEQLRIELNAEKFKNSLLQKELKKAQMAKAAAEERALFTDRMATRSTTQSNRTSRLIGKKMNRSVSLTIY
Sequence (Q96SW2 whole entry): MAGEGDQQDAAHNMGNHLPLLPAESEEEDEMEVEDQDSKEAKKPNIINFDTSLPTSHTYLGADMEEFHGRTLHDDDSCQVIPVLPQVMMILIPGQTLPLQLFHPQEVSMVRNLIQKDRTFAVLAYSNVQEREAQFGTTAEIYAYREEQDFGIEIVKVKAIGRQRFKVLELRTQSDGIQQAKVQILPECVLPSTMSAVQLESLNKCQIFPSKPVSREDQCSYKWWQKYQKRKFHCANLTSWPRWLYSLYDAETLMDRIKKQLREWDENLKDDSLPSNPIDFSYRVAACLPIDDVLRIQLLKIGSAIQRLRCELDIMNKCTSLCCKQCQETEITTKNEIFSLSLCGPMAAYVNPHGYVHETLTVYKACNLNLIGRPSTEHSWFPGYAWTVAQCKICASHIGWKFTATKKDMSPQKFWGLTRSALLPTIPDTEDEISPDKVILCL
Sequence (Q16531 whole entry partner): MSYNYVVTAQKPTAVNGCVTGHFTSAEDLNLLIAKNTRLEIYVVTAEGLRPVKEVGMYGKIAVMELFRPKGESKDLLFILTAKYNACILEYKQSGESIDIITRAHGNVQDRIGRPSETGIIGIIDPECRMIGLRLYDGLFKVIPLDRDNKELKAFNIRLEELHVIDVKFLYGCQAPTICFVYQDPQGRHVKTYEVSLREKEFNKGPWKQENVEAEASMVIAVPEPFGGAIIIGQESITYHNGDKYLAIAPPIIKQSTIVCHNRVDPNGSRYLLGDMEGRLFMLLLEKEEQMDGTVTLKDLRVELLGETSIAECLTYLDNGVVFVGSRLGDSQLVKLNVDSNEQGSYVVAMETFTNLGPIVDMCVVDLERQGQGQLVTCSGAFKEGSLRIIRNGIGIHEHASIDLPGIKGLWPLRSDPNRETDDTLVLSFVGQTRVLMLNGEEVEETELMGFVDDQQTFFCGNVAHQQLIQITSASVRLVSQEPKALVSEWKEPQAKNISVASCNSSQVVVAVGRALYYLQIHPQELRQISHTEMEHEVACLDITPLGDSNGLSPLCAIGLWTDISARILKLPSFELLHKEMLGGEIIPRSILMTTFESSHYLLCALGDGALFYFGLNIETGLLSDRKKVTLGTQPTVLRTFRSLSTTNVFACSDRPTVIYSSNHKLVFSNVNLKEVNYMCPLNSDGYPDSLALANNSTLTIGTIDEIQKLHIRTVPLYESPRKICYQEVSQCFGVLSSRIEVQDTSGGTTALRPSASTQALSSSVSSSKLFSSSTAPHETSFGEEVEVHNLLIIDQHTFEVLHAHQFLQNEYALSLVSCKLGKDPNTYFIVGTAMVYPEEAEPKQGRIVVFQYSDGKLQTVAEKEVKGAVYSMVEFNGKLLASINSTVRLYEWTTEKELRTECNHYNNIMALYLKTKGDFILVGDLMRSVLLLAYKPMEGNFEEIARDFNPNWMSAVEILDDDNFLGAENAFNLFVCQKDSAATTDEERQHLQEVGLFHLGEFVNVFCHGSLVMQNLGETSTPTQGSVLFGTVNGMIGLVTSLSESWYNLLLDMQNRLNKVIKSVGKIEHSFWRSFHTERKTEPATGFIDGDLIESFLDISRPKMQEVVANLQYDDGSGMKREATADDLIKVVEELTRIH
attributeMeasured: DC50 (nM)
# number only, unit nM dropped from output

Would you please look over these solved cases?
                                   compound                               assaysystem  unitstring  reported
0  COC[C@H]1CCCC[C@@H]1c1ccc2cc(CN3CC[C@H](Oc4ccc5c(c4)CN(C4CCC(=O)NC4=O)C5=O)C3)ccc2n1 (stereo partly drawn)  WEE1 (Homo sapiens, UniProt P30291+Q96SW2)          nM      3.03
1  CO[C@H]1CCCN(c2ccc3cc(CN4CC[C@H](Oc5ccc6c(c5)CN(C5CCC(=O)NC5=O)C6=O)C4)ccc3n2)C1 (stereo partly drawn)  WEE1 (Homo sapiens, UniProt P30291+Q96SW2)          nM      5.83
2  CC1(C)CC(c2ccc3cc(CN4CC[C@H](Oc5ccc6c(c5)CN(C5CCC(=O)NC5=O)C6=O)C4)ccc3n2)CCO1 (stereo partly drawn)  WEE1 (Homo sapiens, UniProt P30291+Q96SW2)          nM      2.56
3  CO[C@H]1CC[C@@H](c2ccc3cc(CN4CC[C@H](Oc5ccc6c(c5)CN(C5CCC(=O)NC5=O)C6=O)C4)ccc3n2)CC1 (stereo partly drawn)  WEE1 (Homo sapiens, UniProt P30291+Q96SW2)          nM      1.12
4  O=C1CC[C@H](N2Cc3cc(O[C@H]4CCN(Cc5ccc6nc([C@H]7CCOC7)ccc6c5)C4)ccc3C2=O)C(=O)N1  WEE1 (Homo sapiens, UniProt P30291+Q96SW2)          nM      2.59

Record for O=C1CCC(N2Cc3cc(O[C@H]4CCN(Cc5cc6cc(C7CCOCC7)ccc6cn5)C4)ccc3C2=O)C(=O)N1 (stereo partly drawn) under target or system WEE1 (Homo sapiens, UniProt P30291+Q96SW2): DC50 reported as 5.55

Record for Cc1cnc2ccc(CN3CC[C@H](Oc4ccc5c(c4)CN(C4CCC(=O)NC4=O)C5=O)C3)c(C)c2c1 (stereo partly drawn) under target or system WEE1 (Homo sapiens, UniProt P30291+Q96SW2): DC50 reported as 7.92

Record for COC[C@@H]1CCC[C@H](c2ccc3cc(CN4CC[C@H](Oc5ccc6c(c5)CN(C5CCC(=O)NC5=O)C6=O)C4)ccc3n2)C1 (stereo partly drawn) under target or system WEE1 (Homo sapiens, UniProt P30291+Q96SW2): DC50 reported as 1.63

Record for O=C1CCC(N2Cc3cc(O[C@H]4CCN(Cc5ccc6nc([C@H]7CC[C@@H](O)C7)ccc6c5)C4)ccc3C2=O)C(=O)N1 (stereo partly drawn) under target or system WEE1 (Homo sapiens, UniProt P30291+Q96SW2): DC50 reported as 2.99

---

molecular target: WEE1 (Homo sapiens, UniProt P30291+Q96SW2); construct: C-terminal ePL-tagged (DiscoverX, Fremont, CA) full-length WEE1 expression construct; expressed in transfected cells; host or cells: LentiX-HEK293T (Invitrogen), lentiviral transduction; co-expressing GSPT1-GN (G576N, lacking the first 158 amino acids); assay: WEE1-ePL degradation assay (LentiX-WEE1-ePL-GSPT1-ND cells, InCELL Hunter luminescence, 4 h); assay type: cell-based; settings: 293T-LentiX WEE1-ePL cells, lower limit of the fit (0 = luciferase inhibitor, Ymax = DMSO control)
Decision: 293T-LentiX WEE1-ePL Degradation 4 hr (Ymin) compared against 30; not below it gives yes, below it gives no.

Exam item: decide whether the reported 293T-LentiX WEE1-ePL Degradation 4 hr (Ymin) for [2H]c1nc2ccccc2cc1CN1CCC(Oc2ccc3c(c2)CN(C2CCC(=O)NC2=O)C3=O)C1 (stereo not drawn) is at least 30.
no

Exam item: decide whether the reported 293T-LentiX WEE1-ePL Degradation 4 hr (Ymin) for O=C1CCC(N2Cc3cc(O[C@H]4CCN(Cc5cnc6cnccc6c5)C4)ccc3C2=O)C(=O)N1 (stereo partly drawn) is at least 30.
no

---

molecular target: WEE1 (Homo sapiens, UniProt P30291+Q96SW2); construct: C-terminal ePL-tagged (DiscoverX, Fremont, CA) full-length WEE1 expression construct; expressed in transfected cells; host or cells: LentiX-HEK293T (Invitrogen), lentiviral transduction; co-expressing GSPT1-GN (G576N, lacking the first 158 amino acids); experiment: WEE1-ePL degradation assay (LentiX-WEE1-ePL-GSPT1-ND cells, InCELL Hunter luminescence, 4 h); format: cell-based; settings: 293T-LentiX WEE1-ePL cells, lower limit of the fit (0 = luciferase inhibitor, Ymax = DMSO control)
Decision: 293T-LentiX WEE1-ePL Degradation 4 hr (Ymin) compared against 40; not below it gives Condition met, below it gives Condition not met.

                                   compound                               assaysystem         labelvalue
0  O=C1CCC(N2Cc3cc(O[C@H]4CCN(Cc5ccc6ncc(C(F)F)cc6c5)C4)ccc3C2=O)C(=O)N1 (some centres unmarked)  WEE1 (Homo sapiens, UniProt P30291+Q96SW2)  Condition not met

Exam item: decide whether the reported 293T-LentiX WEE1-ePL Degradation 4 hr (Ymin) for O=C1CCC(N2Cc3cc(O[C@H]4CCN(Cc5ccc6nc(C7CCOCC7)ncc6c5)C4)ccc3C2=O)C(=O)N1 (some centres unmarked) is at least 40.
Condition not met

Exam item: decide whether the reported 293T-LentiX WEE1-ePL Degradation 4 hr (Ymin) for O=C1CCC(N2Cc3cc(O[C@H]4CCN(Cc5ccc6nc(N7CCC[C@]78CCOC8)ccc6c5)C4)ccc3C2=O)C(=O)N1 (some centres unmarked) is at least 40.
Condition met

---

This section presents compounds with their documented 293T-LentiX WEE1-ePL Degradation 4 hr (Ymin) values.
target: WEE1 (Homo sapiens, UniProt P30291+Q96SW2); construct: C-terminal ePL-tagged (DiscoverX, Fremont, CA) full-length WEE1 expression construct; expressed in transfected cells; host or cells: LentiX-HEK293T (Invitrogen), lentiviral transduction; co-expressing GSPT1-GN (G576N, lacking the first 158 amino acids); assay: WEE1-ePL degradation assay (LentiX-WEE1-ePL-GSPT1-ND cells, InCELL Hunter luminescence, 4 h); assay type: cell-based; settings: 293T-LentiX WEE1-ePL cells, lower limit of the fit (Ymin=0 luciferase inhibitor, Ymax DMSO control)
Answer field: number only, no words.

Would you please look over these solved cases?
>>> df
                                   compound  reported
0  COC[C@H]1CCC[C@H](c2ccc3cc(CN4CC[C@H](Oc5ccc6c(c5)CN(C5CCC(=O)NC5=O)C6=O)C4)ccc3n2)C1 (some centres unmarked)     32.49
1  COC[C@@H]1CN(Cc2cc(F)c3nc([C@H]4CCOC(C)(C)C4)ccc3c2)C[C@H]1Oc1ccc2c(c1)CN([C@H]1CCC(=O)NC1=O)C2=O     25.19
2  O=C1CC[C@H](N2Cc3cc(O[C@H]4CCN(Cc5cc(Cl)c6nc(C7CCOCC7)ccc6c5)C4)ccc3C2=O)C(=O)N1     29.99
3  CN1CCN(c2ncc3cc(CN4CC[C@H](Oc5ccc6c(c5)CN([C@H]5CCC(=O)NC5=O)C6=O)C4)ccc3n2)CC1     37.97

Please turn your attention to the following entry.
Sample "CC1(C)C[C@@H](c2ccc3cc(CN4CC[C@H](Oc5ccc6c(c5)CN([C@H]5CCC(=O)NC5=O)C6=O)C4)ncc3c2)CCO1" ; 293T-LentiX WEE1-ePL Degradation 4 hr (Ymin) observed: 26.79

---

molecular target: WEE1 (Homo sapiens, UniProt P30291+Q96SW2); construct: C-terminal ePL-tagged (DiscoverX, Fremont, CA) full-length WEE1 expression construct; expressed in transfected cells; host or cells: LentiX-HEK293T (Invitrogen), lentiviral transduction; co-expressing GSPT1-GN (G576N, lacking the first 158 amino acids); assay: WEE1-ePL degradation assay (LentiX-WEE1-ePL-GSPT1-ND cells, InCELL Hunter luminescence, 4 h); type: cell-based; conditions: 293T-LentiX WEE1-ePL cells, lower limit of the fit (0 = luciferase inhibitor, Ymax = DMSO control)
attributeMeasured: 293T-LentiX WEE1-ePL Degradation 4 hr (Ymin)
Answer field: number only, no words.

Would you please look over these solved cases?
>>> print(df.to_string())
                                   molecule                               assaysystem  reported
0  O=C1CCC(N2C(=O)c3ccc(O[C@H]4CCN(Cc5cnc6ccccc6c5)C4)cc3C2=O)C(=O)N1 (stereo partly drawn)  WEE1 (Homo sapiens, UniProt P30291+Q96SW2)    30.205
1  O=C1CCC(N2Cc3cc(O[C@H]4CCN(Cc5ccc6cccnc6n5)C4)ccc3C2=O)C(=O)N1 (stereo partly drawn)  WEE1 (Homo sapiens, UniProt P30291+Q96SW2)        75
2  O=C1CCC(N2Cc3cc(O[C@H]4CCN(Cc5ccc6nc(N7[C@@H]8COC[C@H]7C8)ccc6c5)C4)ccc3C2=O)C(=O)N1 (stereo partly drawn)  WEE1 (Homo sapiens, UniProt P30291+Q96SW2)        37
3  O=C1CCC(N2Cc3ccc(O[C@@H]4CCN(Cc5cnc6ccccc6c5)C4)cc3C2=O)C(=O)N1 (stereo partly drawn)  WEE1 (Homo sapiens, UniProt P30291+Q96SW2)     89.42
4  O=C1CCC(N2Cc3cc(O[C@H]4CCN(Cc5ccc6nc(C(F)F)ccc6c5)C4)ccc3C2=O)C(=O)N1 (stereo partly drawn)  WEE1 (Homo sapiens, UniProt P30291+Q96SW2)     29.42

Sample O=C1CCC(N2Cc3cc(O[C@H]4CCN(Cc5cc6ccncc6cn5)C4)ccc3C2=O)C(=O)N1 (stereo partly drawn) ; 293T-LentiX WEE1-ePL Degradation 4 hr (Ymin) observed: 28.095
